Measured log10(MIC), listed per entry.
# Tested on: Salmonella typhi
# testMethodNotes: Antibacterial activity against Salmonella typhi MTCC 98 by macrobroth dilution assay
# Assay type: functional, Salmonella enterica subsp. enterica serovar Typhi
# statedConditions: Salmonella enterica
propertyName: log10(MIC) (log10 of the value in µg/mL)

>  <smilesRepresentation>
CCOC(=O)[C@H]1C[C@@H]2COc3ccc(/N=N/c4ccccc4)cc3[C@@H]2N1CC

>  <log10(MIC)>
2.40

$$$$
>  <smilesRepresentation>
CCCCOC(=O)[C@H]1C[C@@H]2COc3ccc(/N=N/c4ccccc4)cc3[C@@H]2N1C

>  <log10(MIC)>
2.40

$$$$
>  <smilesRepresentation>
O=C(N[C@H](CO)[C@H](O)c1ccc([N+](=O)[O-])cc1)C(Cl)Cl

>  <log10(MIC)>
1.70

$$$$
>  <smilesRepresentation>
O=C(O)c1cn(C2CC2)c2cc(N3CCNCC3)c(F)cc2c1=O

>  <log10(MIC)>
1.40

$$$$
>  <smilesRepresentation>
CCCOC(=O)[C@H]1C[C@@H]2COc3ccc(/N=N/c4ccccc4)cc3[C@@H]2N1C

>  <log10(MIC)>
2.40

$$$$
>  <smilesRepresentation>
COC(=O)[C@H]1C[C@@H]2COc3ccc(/N=N/c4ccccc4)cc3[C@@H]2N1C

>  <log10(MIC)>
2.30

$$$$
>  <smilesRepresentation>
CCn1cc(C(=O)O)c(=O)c2cc(F)c(N3CCNCC3)cc21

>  <log10(MIC)>
1.00

$$$$
>  <smilesRepresentation>
CCCCOC(=O)[C@H]1C[C@@H]2COc3ccc(/N=N/c4ccccc4)cc3[C@@H]2N1Cc1ccccc1

>  <log10(MIC)>
2.00

$$$$

----------
# System: Clostridium tetani
# testMethodNotes: Antibacterial activity against Clostridium tetani MTCC 449 by macrobroth dilution assay
# Type: functional

>  <smilesRepresentation>
CC1(C)S[C@@H]2[C@H](NC(=O)[C@H](N)c3ccccc3)C(=O)N2[C@H]1C(=O)O

>  <measurementTarget>
Clostridium tetani

>  <quantityUnit>
mg/L

>  <MIC>
250

$$$$
>  <smilesRepresentation>
CCCCOC(=O)[C@H]1C[C@@H]2COc3ccc(/N=N/c4ccccc4)cc3[C@@H]2N1CC

>  <measurementTarget>
Clostridium tetani

>  <quantityUnit>
mg/L

>  <MIC>
250

$$$$
>  <smilesRepresentation>
CCOC(=O)[C@H]1C[C@@H]2COc3ccc(/N=N/c4ccccc4)cc3[C@@H]2N1Cc1ccccc1

>  <measurementTarget>
Clostridium tetani

>  <quantityUnit>
mg/L

>  <MIC>
200

$$$$
>  <smilesRepresentation>
CCCOC(=O)[C@H]1C[C@@H]2COc3ccc(/N=N/c4ccccc4)cc3[C@@H]2N1CC

>  <measurementTarget>
Clostridium tetani

>  <quantityUnit>
mg/L

>  <MIC>
200

$$$$
>  <smilesRepresentation>
CCOC(=O)[C@H]1C[C@@H]2COc3ccc(/N=N/c4ccccc4)cc3[C@@H]2N1C

>  <measurementTarget>
Clostridium tetani

>  <quantityUnit>
mg/L

>  <MIC>
200

$$$$
>  <smilesRepresentation>
COC(=O)[C@H]1C[C@@H]2COc3ccc(/N=N/c4ccccc4)cc3[C@@H]2N1Cc1ccccc1

>  <measurementTarget>
Clostridium tetani

>  <quantityUnit>
mg/L

>  <MIC>
200

$$$$
>  <smilesRepresentation>
CCCOC(=O)[C@H]1C[C@@H]2COc3ccc(/N=N/c4ccccc4)cc3[C@@H]2N1Cc1ccccc1

>  <measurementTarget>
Clostridium tetani

>  <quantityUnit>
mg/L

>  <MIC>
250

$$$$

----------
# Test system: Clostridium tetani
# testMethodNotes: Antibacterial activity against Clostridium tetani MTCC 449 by macrobroth dilution assay
# Format: functional

>  <smilesRepresentation>
CCn1cc(C(=O)O)c(=O)c2cc(F)c(N3CCNCC3)cc21

>  <censoringOperator>
=

>  <MIC [µg/mL]>
50

$$$$
>  <smilesRepresentation>
CCN1[C@@H](C(=O)OC)C[C@@H]2COc3ccc(/N=N/c4ccccc4)cc3[C@@H]21

>  <censoringOperator>
>

>  <MIC [µg/mL]>
250

$$$$
>  <smilesRepresentation>
COC(=O)[C@H]1C[C@@H]2COc3ccc(/N=N/c4ccccc4)cc3[C@@H]2N1C

>  <censoringOperator>
>

>  <MIC [µg/mL]>
250

$$$$
>  <smilesRepresentation>
CCCCOC(=O)[C@H]1C[C@@H]2COc3ccc(/N=N/c4ccccc4)cc3[C@@H]2N1Cc1ccccc1

>  <censoringOperator>
>

>  <MIC [µg/mL]>
250

$$$$
>  <smilesRepresentation>
O=C(N[C@H](CO)[C@H](O)c1ccc([N+](=O)[O-])cc1)C(Cl)Cl

>  <censoringOperator>
=

>  <MIC [µg/mL]>
50

$$$$
>  <smilesRepresentation>
CCOC(=O)[C@H]1C[C@@H]2COc3ccc(/N=N/c4ccccc4)cc3[C@@H]2N1CC

>  <censoringOperator>
=

>  <MIC [µg/mL]>
250

$$$$
>  <smilesRepresentation>
CCCCOC(=O)[C@H]1C[C@@H]2COc3ccc(/N=N/c4ccccc4)cc3[C@@H]2N1C

>  <censoringOperator>
=

>  <MIC [µg/mL]>
100

$$$$
>  <smilesRepresentation>
CCCOC(=O)[C@H]1C[C@@H]2COc3ccc(/N=N/c4ccccc4)cc3[C@@H]2N1C

>  <censoringOperator>
>

>  <MIC [µg/mL]>
250

$$$$

----------
Measured MIC, listed per entry.
# System: Salmonella typhi
# testMethodNotes: Antibacterial activity against Salmonella typhi MTCC 98 by macrobroth dilution assay
# Assay type: functional, Salmonella enterica subsp. enterica serovar Typhi
# statedConditions: Salmonella enterica
propertyName: MIC (µg/mL)

>  <smilesRepresentation>
CCCOC(=O)[C@H]1C[C@@H]2COc3ccc(/N=N/c4ccccc4)cc3[C@@H]2N1CC

>  <quantityUnit>
µg/mL

>  <censoringOperator>
=

>  <measuredResult>
100

$$$$
>  <smilesRepresentation>
CCCOC(=O)[C@H]1C[C@@H]2COc3ccc(/N=N/c4ccccc4)cc3[C@@H]2N1Cc1ccccc1

>  <quantityUnit>
µg/mL

>  <censoringOperator>
=

>  <measuredResult>
250

$$$$
>  <smilesRepresentation>
COC(=O)[C@H]1C[C@@H]2COc3ccc(/N=N/c4ccccc4)cc3[C@@H]2N1Cc1ccccc1

>  <quantityUnit>
µg/mL

>  <censoringOperator>
=

>  <measuredResult>
250

$$$$
>  <smilesRepresentation>
CCOC(=O)[C@H]1C[C@@H]2COc3ccc(/N=N/c4ccccc4)cc3[C@@H]2N1Cc1ccccc1

>  <quantityUnit>
µg/mL

>  <censoringOperator>
>

>  <measuredResult>
250

$$$$
>  <smilesRepresentation>
CCN1[C@@H](C(=O)OC)C[C@@H]2COc3ccc(/N=N/c4ccccc4)cc3[C@@H]21

>  <quantityUnit>
µg/mL

>  <censoringOperator>
>

>  <measuredResult>
250

$$$$
>  <smilesRepresentation>
CCOC(=O)[C@H]1C[C@@H]2COc3ccc(/N=N/c4ccccc4)cc3[C@@H]2N1C

>  <quantityUnit>
µg/mL

>  <censoringOperator>
=

>  <measuredResult>
50

$$$$
>  <smilesRepresentation>
CCCCOC(=O)[C@H]1C[C@@H]2COc3ccc(/N=N/c4ccccc4)cc3[C@@H]2N1CC

>  <quantityUnit>
µg/mL

>  <censoringOperator>
=

>  <measuredResult>
100

$$$$
>  <smilesRepresentation>
CC1(C)S[C@@H]2[C@H](NC(=O)[C@H](N)c3ccccc3)C(=O)N2[C@H]1C(=O)O

>  <quantityUnit>
µg/mL

>  <censoringOperator>
=

>  <measuredResult>
100

$$$$
